TESTED_ON: Adrenergic receptor alpha-2 (Rattus norvegicus, UniProt P22086+P19328+P22909)
Sequence (P22086 whole entry): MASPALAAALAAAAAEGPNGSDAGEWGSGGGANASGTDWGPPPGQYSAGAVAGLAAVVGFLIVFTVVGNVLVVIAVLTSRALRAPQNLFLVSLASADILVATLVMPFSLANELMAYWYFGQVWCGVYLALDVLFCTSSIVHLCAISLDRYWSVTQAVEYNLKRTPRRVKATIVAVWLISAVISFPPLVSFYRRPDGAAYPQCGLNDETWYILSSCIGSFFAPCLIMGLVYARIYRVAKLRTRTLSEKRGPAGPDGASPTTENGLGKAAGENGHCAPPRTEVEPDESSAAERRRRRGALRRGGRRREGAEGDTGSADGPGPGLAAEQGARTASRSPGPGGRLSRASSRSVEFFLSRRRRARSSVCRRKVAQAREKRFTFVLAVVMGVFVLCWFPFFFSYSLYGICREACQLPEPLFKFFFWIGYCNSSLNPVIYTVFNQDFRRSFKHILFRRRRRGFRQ
Sequence (P19328 whole entry): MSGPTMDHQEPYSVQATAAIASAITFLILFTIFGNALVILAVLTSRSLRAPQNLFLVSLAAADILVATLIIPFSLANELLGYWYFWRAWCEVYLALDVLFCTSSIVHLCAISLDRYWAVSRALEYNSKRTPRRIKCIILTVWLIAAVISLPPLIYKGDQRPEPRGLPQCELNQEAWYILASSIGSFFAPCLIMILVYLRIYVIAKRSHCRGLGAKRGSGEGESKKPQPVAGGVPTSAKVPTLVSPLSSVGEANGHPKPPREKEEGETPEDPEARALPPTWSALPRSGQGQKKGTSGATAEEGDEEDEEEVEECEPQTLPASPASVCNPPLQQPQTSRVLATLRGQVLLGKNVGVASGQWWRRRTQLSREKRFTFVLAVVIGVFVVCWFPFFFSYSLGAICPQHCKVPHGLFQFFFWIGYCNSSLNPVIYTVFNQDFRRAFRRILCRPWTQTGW
Sequence (P22909 whole entry): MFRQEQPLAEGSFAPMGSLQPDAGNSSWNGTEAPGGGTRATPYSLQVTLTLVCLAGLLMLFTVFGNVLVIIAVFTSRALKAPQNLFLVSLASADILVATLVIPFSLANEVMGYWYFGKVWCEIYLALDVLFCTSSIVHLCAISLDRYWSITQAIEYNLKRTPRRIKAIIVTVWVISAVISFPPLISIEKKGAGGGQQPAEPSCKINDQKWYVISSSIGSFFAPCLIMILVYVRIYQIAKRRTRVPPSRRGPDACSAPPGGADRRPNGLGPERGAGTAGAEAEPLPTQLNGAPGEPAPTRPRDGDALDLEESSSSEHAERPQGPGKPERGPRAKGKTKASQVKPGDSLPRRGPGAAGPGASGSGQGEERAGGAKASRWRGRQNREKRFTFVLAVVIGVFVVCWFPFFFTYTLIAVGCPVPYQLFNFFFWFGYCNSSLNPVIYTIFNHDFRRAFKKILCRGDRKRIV
MEASUREMENT_PROTOCOL: Binding affinity by its ability to displace [3H]rauwolscine radioligand from Alpha-2 adrenergic receptor on rat cerebral cortex
Format: tissue-based
PROPERTY_NAME: Ki (nM)

1: COc1ccccc1N1CCN(CCCn2nc(-n3cnc4ccccc43)ccc2=O)CC1
2: O=c1ccc(-n2ccnc2)nn1CCCN1CCN(c2ccccc2Cl)CC1
Min Ki? 1 | 2 Could you answer with the label of the item you picked?
1

I: COc1ccccc1N1CCN(CCCCn2nc(-n3cnc4ccccc43)ccc2=O)CC1
II: O=c1ccc(-n2cnc3ccccc32)nn1CCCN1CCN(c2ccccc2Cl)CC1
Would you let me know which has the greater Ki value, I or II ? Refer to your chosen entry by its label in the reply.
II
(II: 44.7 nM, I: 16 nM)

meta.source: ChEMBL document CHEMBL1135045
